Values from patent US10413535B2

# assay.details: Toxicokinetics in 13-week topical ocular rabbit study
# test.context: male, New Zealand White, in vivo, topical or ocular, 50 mg/mL/occasion, male rabbits, 50 mg/mL, 12 daily doses, Day 1, read-out: AUC0-1
metric: AUC(0-t) (ng·h/mL)
API: value field is a number in ng·h/mL; no unit string.

In one line, give reported AUC(0-t) of the entry Cc1ccccc1OCC(=O)N[C@@H](CC(C)C)C(=O)N[C@@H](Cc1ccc(OC(=O)N2CCC(C(N)=O)CC2)cc1)C(=O)O [GW559090] .
12.1

====

# assay.details: Toxicokinetics in 13-week topical ocular dog study
# test.context: female, beagle, in vivo, topical or ocular, 50 mg/mL/occasion, female dogs, 50 mg/mL, 6 daily doses, Week 13, read-out: AUC0-24
metric: AUC(0-t) (ng·h/mL)
API: value field is a number in ng·h/mL; no unit string.

In one line, give reported AUC(0-t) of the entry Cc1ccccc1OCC(=O)N[C@@H](CC(C)C)C(=O)N[C@@H](Cc1ccc(OC(=O)N2CCC(C(N)=O)CC2)cc1)C(=O)O [GW559090] .
39.8
